Let's look at some compounds and their measured melting point.

The cases that follow already have their melting point on record.
>>> result("COc1ccc(CCNCC(O)c2cccc(Cl)c2)cc1 (stereo not drawn)")
"101 to 103 °C"
>>> result("O=C1Cc2ccnc(N3CCNCC3)c2N1")
"200 to 204 °C"
>>> result("CCOC(=O)c1c(-c2ccc(F)cc2)c2ccccc2n1C")
"61 to 62 °C"

So for CC(=O)c1cccc(-c2cncc(OC3SCC(O)C(O)C3O)c2)c1 (stereo not drawn) , the logged melting point turned out to be 159 to 163 °C

So for "CCc1[nH]n(C2CCCC2)c2nc(S(C)(=O)=O)nc(=O)c1-2" , the logged melting point turned out to be > 300 °C

So for "CN1CCN(c2cccc(-c3cnn4c(N)c(-c5ccccc5Cl)cnc34)c2)CC1" , the logged melting point turned out to be 200 to 203 °C

So for CC(C)N(C(N)=O)C(Oc1ccccc1)C(C)(O)Cl (stereo not drawn) , the logged melting point turned out to be 154 °C

So for "CCC/C(=C\C=C\C(=O)Oc1ccc([N+](=O)[O-])cc1)c1ccc(OC)cc1" , the logged melting point turned out to be 90 to 92 °C

So for "CC(C#N)=C1CCN(c2ccc(N3C[C@H](CO)OC3=O)cc2F)CC1" , the logged melting point turned out to be 100 to 102 °C

So for "Fc1ccc(N2CCN(Cc3cn4cc(Cl)cc(Cl)c4n3)CC2)cc1" , the logged melting point turned out to be 126 to 128 °C

So for "C[C@H]1CN(C(c2ccccc2)(c2ccccc2)c2ccccc2)CCN1c1ccc(C(F)(F)F)c(Cl)n1" , the logged melting point turned out to be 210 °C

* * *

Let's look at some molecules and their measured melting point.

So for "CCC(CC)Nc1cc(C)nc(Oc2c(C)cc(Cl)cc2C)c1[N+](=O)[O-]" , the logged melting point turned out to be 152 to 154 °C

So for "Cc1ccc(C2C(=O)CCC2=O)c(C)c1" , the logged melting point turned out to be 198 to 200 °C

So for O=C1N(c2cccc(C(F)(F)F)c2)CC(CCl)C1(Cl)Cl (stereo not given) , the logged melting point turned out to be 87 to 100 °C

So for "COc1cc2c(I)cn(C)c2cc1OC" , the logged melting point turned out to be 80 to 90 °C

So for CC(=O)NCc1ccc(/C=C/C(c2cc(Cl)cc(Cl)c2)C(F)(F)F)cc1 (stereo not given) , the logged melting point turned out to be 107 to 109 °C

So for "CC(C)(C)c1cc(Cl)c2c(c1)CNS(=O)(=O)O2" , the logged melting point turned out to be 158 to 160 °C

So for "CCNc1nc(SC)nc(SC)c1[N+](=O)[O-]" , the logged melting point turned out to be 149 to 150 °C

So for "CCOC(=O)c1c(C(F)(F)F)nc(-c2ccccc2)c(-c2ccccc2)c1O" , the logged melting point turned out to be 130 °C

* * *

Let's look at some compounds and their measured melting point.

The cases that follow already have their melting point on record.
>>> result("Cc1ccc(C(=O)CC2CCCN(C)C2)cc1 (stereo unspecified)")
"70 to 74 °C"
>>> result("CC(=O)Nc1cc(-c2c(-c3cccc(C)c3)nc3ccc(Cl)nn23)ccn1")
"228 to 229 °C"
>>> result("O=c1cc(Cl)c2nc3ccc(F)cc3sc-2c1Cl")
"245 to 247 °C"

So for "Cc1cccc(NC(=O)c2nc(-c3ccccc3)c3ccccc3c2O)n1" , the logged melting point turned out to be 261 to 263 °C

So for CC(C)(O)C(=O)c1ccc(C(O)c2ccc(C(=O)C3(O)CCCCC3)cc2)cc1 (stereo unspecified) , the logged melting point turned out to be 115 to 118 °C

So for "CCCCCCCCCCCCCCCCS(N)(=O)=O" , the logged melting point turned out to be 98 to 100 °C
